Tested on: Caco-2 (human epithelial colorectal adenocarcinoma)
Test: cells
Settings: Caco-2, 72 h
Measured quantity: IC50 (µM)
Numbers only, in µM.

The molecule listed as COc1cc([C@@H]2c3cc4c(cc3[C@@H](O[C@@H]3O[C@@H]5CO[C@@H](C)O[C@H]5[C@H](O)[C@H]3O)[C@H]3COC(=O)[C@H]23)OCO4)cc(OC)c1O [Etoposide] has a reported IC50 of 16.5

###

Test system: HCT-116 (human colon carcinoma)
Assay: MTS cytotoxicity assay, HCT-116
Format: cell-based
Conditions: HCT-116, 48 h
Measured quantity: pIC50
Numbers only, as −log10 of the molar value.

Known value: HCT-116 (human colon carcinoma) pIC50 of the molecule COc1cc([C@@H]2c3cc4c(cc3[C@@H](O[C@@H]3O[C@@H]5CO[C@@H](C)O[C@H]5[C@H](O)[C@H]3O)[C@H]3COC(=O)[C@H]23)OCO4)cc(OC)c1O [Etoposide] equals 4.64
